Biological target: Luciferin 4-monooxygenase (Photinus pyralis)
Experiment: firefly luciferase enzyme inhibitors, primary screen, biochemical, luminescence, purified enzyme, 2006 set (AID 1141);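 note: cell-free assay with purified firefly luciferase at 100 ng per well in PBS; test concentration not given here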
Conditions: SteadyGlo luminescence, 30 min, higher = more signal, called active from +8 up or from −8 down
Listed here: items and their measured z-score.
Quick one: just the number, no unit, thanks!

Known results for compounds:
[[record]]
compound = "COc1ccc(C(O)C2C=CC3C(=O)N(c4ccccc4)C(=O)C3N2Nc2ccc(C(C)C)cc2)cc1OCc1ccccc1 (stereo not drawn)"
endpoint = "z-score"
result_number = -1.96

[[record]]
compound = "NC(=O)[C@@H]1[C@H]2C(=O)O[C@H](c3ccccc3)[C@H](c3ccccc3)N2[C@H](c2ccc(O)cc2)[C@@]12C(=O)Nc1ccc(C#CC3(O)CCCCCC3)cc12"
endpoint = "z-score"
result_number = -0.869

[[record]]
compound = "CC(=O)NCCCC[C@@H]1NC(=O)[C@@H]2C[C@H](C(=O)NCCCCCCNC(=O)CS)[C@H](c3cccc(OCCO)c3)N2C1=O"
endpoint = "z-score"
result_number = -0.242


Entry CCCCC(=C=CC[C@@H](O)c1ccccc1OCCO)CCO ; z-score = -1.85

Entry CCc1oc(CC[C@@H](CO)NC(=O)NCCn2cc(C3(O)CCCCC3)nn2)c(C(=O)OC)c1C(=O)OC ; z-score = 0.654

Entry CC(C)(C)OC(=O)CC[C@@]1(C(=O)NCC(O)CO)N=C(c2ccc(OCCCO)cc2)O[C@@H]1c1ccccc1N=[N+]=[N-] (stereo partly drawn) ; z-score = -10.6

Entry CCOC(=O)C[C@H]1[C@H](OC(=O)c2ccc(C(=O)c3ccccc3)cc2)[C@@H](NC(=O)c2ccc(-c3ccccc3)cc2)c2cc(OCCCO)ccc2N1C(=O)c1ccccc1 ; z-score = -0.265

Entry C=C/C=C/[C@H]1C(=C)CN([C@@H](Cc2ccccc2)C(=O)OC)[C@@H]1[C@H](O)Cc1ccccc1 ; z-score = -0.494

Entry CCOC(=O)C1=CCC(c2ccc(C)cc2)N(S(=O)(=O)c2ccc(C)cc2)C1 (stereo not drawn) ; z-score = 1.47

Entry CC(C)(C)OC(=O)CC[C@]12N=C(c3ccc(OCCCO)cc3)O[C@H]1c1ccccc1N(CCS(=O)(=O)c1ccccc1)C2=O ; z-score = -8.32

Entry O=C1OCCC/C=C\[C@H]2OC34C=CCN(c5ccc6ccccc6c5)C(=O)[C@H]3N(CCCCCCO)C(=O)[C@@H]4C12 (stereo partly drawn) ; z-score = -1.47

Entry O=C(C1N=C(c2ccc(OCCCO)cc2)N(c2ccccc2)O1)N1CCOCC1 (stereo not drawn) ; z-score = -12

Entry CCCCN1CC=CC23O[C@@H]4C=CCOC(=O)[C@@H]4[C@H]2C(=O)N(CCCCCO)[C@@H]3C1=O (stereo partly drawn) ; z-score = 0.01

Entry CCOC(=O)C[C@H]1[C@H](OC(=O)Cc2ccc3c(c2)OCO3)[C@@H](NC(=O)c2ccc3ccccc3c2)c2cc(OCCCO)ccc2N1C(=O)c1ccccc1 ; z-score = -1.05

Entry Cc1ccc(S[C@]2(C(=O)NC3CC3)CC(=O)N(C3Cc4ccccc4C3)[C@@H]2c2ccc(CO)cc2)cc1 ; z-score = -1.28

Entry COCCCN1C(=O)[C@@]2(c3ccc([N+](=O)[O-])cc3)CC(=O)N(C3CCCCC3)[C@@H]2c2ccc(CO)cc21 ; z-score = -0.302

Entry C=C(C)C1C(=C)CN([C@H](CO)c2ccccc2)C1=O (stereo partly drawn) ; z-score = 1.01

Entry CCN(CC)c1ccc(N2CC=CC34O[C@@H]5/C=C\CCCOC(=O)C5[C@H]3C(=O)N(CCO)[C@@H]4C2=O)cc1 (stereo partly drawn) ; z-score = -0.312
